targetDesc: T1, Human CD137 ECD (human)
T1 construct: C-terminal His-tag and biotin acceptor peptide are in the entry; also called human CD137 extracellular domain; recombinant human CD137
T1 sequence (chain, as listed by the source limits assumed): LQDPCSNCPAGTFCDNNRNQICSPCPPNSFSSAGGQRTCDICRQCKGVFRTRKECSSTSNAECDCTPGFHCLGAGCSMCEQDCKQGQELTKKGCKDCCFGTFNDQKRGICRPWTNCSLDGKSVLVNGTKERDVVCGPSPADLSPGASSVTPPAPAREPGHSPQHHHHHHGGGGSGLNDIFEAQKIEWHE
experiment: SPR Biacore T200, 37 C, Ab captured
testReadout: pKd
// pKd: -log10(molar conc.)

QUERY: Need pKd of H1579L0581 (antibody, V domains shown) VH: QVQLVESGGGLVQPGRSLRLSCAASGFKFSHVWFHWVRQAPGKGLEWVAQIKDKYNAYAAYYAPSVKGRFTISRDDSKNSIYLQMNSLKTEDTAVYYCHYVHYASASTLLPAFGVDAWGQGTTVTVSS VL: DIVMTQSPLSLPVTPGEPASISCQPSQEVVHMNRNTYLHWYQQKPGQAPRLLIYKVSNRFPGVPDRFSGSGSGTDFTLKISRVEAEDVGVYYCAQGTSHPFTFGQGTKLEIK , thanks.
RESULT: 6.56

QUERY: Need pKd of H1643L0581 (antibody, V domains shown, also called H1643L581; Dual) VH: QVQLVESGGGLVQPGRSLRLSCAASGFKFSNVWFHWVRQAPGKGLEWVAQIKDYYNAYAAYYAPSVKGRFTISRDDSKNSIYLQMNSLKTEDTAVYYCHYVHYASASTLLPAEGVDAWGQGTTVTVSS VL: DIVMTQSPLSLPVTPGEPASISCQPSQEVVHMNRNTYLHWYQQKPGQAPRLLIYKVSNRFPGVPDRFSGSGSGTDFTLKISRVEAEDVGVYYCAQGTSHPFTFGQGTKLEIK , thanks.
RESULT: 7.32

QUERY: Need pKd of H1595L0581 (antibody, V domains shown) VH: QVQLVESGGGLVQPGRSLRLSCAASGFKFSNTWMHWVRQAPGKGLEWVAQIKDKYNAYAAYYAPSVKGRFTISRDDSKNSIYLQMNSLKTEDTAVYYCHYIHYASASTLLPAFGVDAWGQGTTVTVSS VL: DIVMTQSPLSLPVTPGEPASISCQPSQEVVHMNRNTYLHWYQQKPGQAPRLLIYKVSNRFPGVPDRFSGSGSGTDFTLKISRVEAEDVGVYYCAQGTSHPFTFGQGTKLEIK , thanks.
RESULT: 6.71
